- assayed-system: Integrin alpha-4/beta-1 (Homo sapiens, UniProt P05556+P13612)
- Sequence (P05556 whole entry): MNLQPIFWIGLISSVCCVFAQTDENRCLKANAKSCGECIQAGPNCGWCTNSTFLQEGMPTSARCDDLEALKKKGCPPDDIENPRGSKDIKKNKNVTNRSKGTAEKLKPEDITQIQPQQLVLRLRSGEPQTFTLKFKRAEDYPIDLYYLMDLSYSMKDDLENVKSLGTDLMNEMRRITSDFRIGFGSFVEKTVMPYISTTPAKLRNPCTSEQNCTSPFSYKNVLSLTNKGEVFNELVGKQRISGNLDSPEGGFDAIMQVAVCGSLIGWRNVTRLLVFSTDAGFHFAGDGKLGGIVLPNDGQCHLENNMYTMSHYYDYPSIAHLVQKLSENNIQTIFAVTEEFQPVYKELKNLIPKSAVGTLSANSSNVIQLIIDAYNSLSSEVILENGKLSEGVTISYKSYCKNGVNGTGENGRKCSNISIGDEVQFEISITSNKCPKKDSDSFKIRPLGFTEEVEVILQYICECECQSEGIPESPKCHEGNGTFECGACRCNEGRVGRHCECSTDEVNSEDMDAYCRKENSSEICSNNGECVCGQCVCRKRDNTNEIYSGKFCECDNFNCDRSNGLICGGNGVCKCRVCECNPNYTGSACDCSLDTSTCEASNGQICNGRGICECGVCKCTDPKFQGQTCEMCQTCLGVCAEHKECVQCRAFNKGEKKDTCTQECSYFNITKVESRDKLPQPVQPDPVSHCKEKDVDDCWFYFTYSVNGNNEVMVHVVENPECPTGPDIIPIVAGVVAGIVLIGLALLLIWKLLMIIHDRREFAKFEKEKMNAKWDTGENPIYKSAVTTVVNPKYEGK
- Sequence (P13612 whole entry): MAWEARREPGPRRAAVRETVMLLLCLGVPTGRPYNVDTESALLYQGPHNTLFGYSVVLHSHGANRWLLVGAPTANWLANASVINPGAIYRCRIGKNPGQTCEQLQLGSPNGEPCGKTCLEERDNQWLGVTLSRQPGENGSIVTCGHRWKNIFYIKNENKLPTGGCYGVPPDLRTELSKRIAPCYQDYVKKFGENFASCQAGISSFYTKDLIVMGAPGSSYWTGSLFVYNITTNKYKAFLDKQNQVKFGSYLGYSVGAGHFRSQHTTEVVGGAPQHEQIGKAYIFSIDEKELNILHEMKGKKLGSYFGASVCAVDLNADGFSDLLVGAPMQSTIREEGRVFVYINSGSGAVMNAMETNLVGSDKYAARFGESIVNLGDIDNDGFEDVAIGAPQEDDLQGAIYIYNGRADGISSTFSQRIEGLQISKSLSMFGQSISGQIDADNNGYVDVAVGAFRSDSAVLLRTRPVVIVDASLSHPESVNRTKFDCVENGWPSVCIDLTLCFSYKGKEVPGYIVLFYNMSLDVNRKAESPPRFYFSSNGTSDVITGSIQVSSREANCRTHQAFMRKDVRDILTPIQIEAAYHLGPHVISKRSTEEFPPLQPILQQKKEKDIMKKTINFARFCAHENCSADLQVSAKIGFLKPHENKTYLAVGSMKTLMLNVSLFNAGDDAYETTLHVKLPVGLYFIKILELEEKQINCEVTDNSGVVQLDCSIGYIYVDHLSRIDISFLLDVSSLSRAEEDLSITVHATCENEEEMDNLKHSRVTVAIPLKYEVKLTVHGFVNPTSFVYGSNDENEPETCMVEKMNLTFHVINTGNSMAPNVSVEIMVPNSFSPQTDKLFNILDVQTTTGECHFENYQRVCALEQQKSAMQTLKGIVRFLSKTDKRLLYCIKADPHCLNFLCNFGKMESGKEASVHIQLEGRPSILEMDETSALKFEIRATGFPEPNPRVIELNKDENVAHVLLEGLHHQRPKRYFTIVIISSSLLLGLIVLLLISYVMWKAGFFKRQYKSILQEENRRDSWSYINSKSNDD
- experiment-summary: Percentage binding to VLA-4 receptor of Jurkat cells
- Format: cell-based
measured-attribute: Percent binding to VLA-4 (%)
Output spec: scalar in %, unitless text.

Some solved entries appear below for comparison.
O=C(Nc1ccc(C[C@H](NC(=O)[C@@H]2CCCN2S(=O)(=O)c2cc(Cl)cc(Cl)c2)c2cc(O)no2)cc1)c1c(Cl)cncc1Cl	8
O=C(Nc1ccc(C[C@H](NC(=O)[C@@H]2CCCN2S(=O)(=O)c2cc(Cl)cc(Cl)c2)c2noc(O)n2)cc1)c1c(Cl)cncc1Cl	0
O=C(Nc1ccc(C[C@H](NC(=O)[C@@H]2CCCN2S(=O)(=O)c2cc(Cl)cc(Cl)c2)C(=O)NS(=O)(=O)C(F)(F)F)cc1)c1c(Cl)cncc1Cl	0

Request: Fill in Percent binding to VLA-4 for CCOC(=O)CC(=O)[C@H](Cc1ccc(NC(=O)c2c(Cl)cncc2Cl)cc1)NC(=O)[C@@H]1CCCN1S(=O)(=O)c1cc(Cl)cc(Cl)c1 tested with Integrin alpha-4/beta-1 (Homo sapiens, UniProt P05556+P13612).
Result: 10

Request: Fill in Percent binding to VLA-4 for O=C(Nc1ccc(C[C@H](NC(=O)[C@@H]2CCCN2S(=O)(=O)c2cc(Cl)cc(Cl)c2)C(=O)NC(=O)C(F)(F)F)cc1)c1c(Cl)cncc1Cl tested with Integrin alpha-4/beta-1 (Homo sapiens, UniProt P05556+P13612).
Result: 0

Request: Fill in Percent binding to VLA-4 for O=C(Nc1ccc(C[C@H](NC(=O)[C@@H]2CCCN2S(=O)(=O)c2cc(Cl)cc(Cl)c2)C(=O)O)cc1)c1c(Cl)cncc1Cl tested with Integrin alpha-4/beta-1 (Homo sapiens, UniProt P05556+P13612).
Result: 66

Request: Fill in Percent binding to VLA-4 for O=C(Nc1ccc(C[C@H](NC(=O)[C@@H]2CCCN2S(=O)(=O)c2cc(Cl)cc(Cl)c2)c2cc(O)[nH]n2)cc1)c1c(Cl)cncc1Cl tested with Integrin alpha-4/beta-1 (Homo sapiens, UniProt P05556+P13612).
Result: 6

Request: Fill in Percent binding to VLA-4 for O=C(Nc1ccc(C[C@H](NC(=O)[C@@H]2CCCN2S(=O)(=O)c2cc(Cl)cc(Cl)c2)c2nnn[nH]2)cc1)c1c(Cl)cncc1Cl tested with Integrin alpha-4/beta-1 (Homo sapiens, UniProt P05556+P13612).
Result: 0

---

- assayed-system: Integrin alpha-4/beta-1 (Homo sapiens, UniProt P05556+P13612)
- experiment-summary: Inhibition of VLA-4 receptor of Jurkat cells in BURJ assay
Here, each record is paired with measured IC50 data.
Output spec: scalar in nM, unitless text.

CCOC(=O)CC(=O)[C@H](Cc1ccc(NC(=O)c2c(Cl)cncc2Cl)cc1)NC(=O)[C@@H]1CCCN1S(=O)(=O)c1cc(Cl)cc(Cl)c1	13
O=C(Nc1ccc(C[C@H](NC(=O)[C@@H]2CCCN2S(=O)(=O)c2cc(Cl)cc(Cl)c2)c2noc(O)n2)cc1)c1c(Cl)cncc1Cl	12
O=C(Nc1ccc(C[C@H](NC(=O)[C@@H]2CCCN2S(=O)(=O)c2cc(Cl)cc(Cl)c2)c2cc(=O)[nH]o2)cc1)c1c(Cl)cncc1Cl	20
COc1cccc(OC)c1-c1ccc(C[C@@H](Cn2oc(=O)[nH]c2=O)NC(=O)[C@@H]2CCCN2S(=O)(=O)c2cc(Cl)cc(Cl)c2)cc1	6000
O=C(Nc1ccc(C[C@H](NC(=O)[C@@H]2CCCN2S(=O)(=O)c2cc(Cl)cc(Cl)c2)c2nnn[nH]2)cc1)c1c(Cl)cncc1Cl	60

Could you now look at the following compound, please?
Request: Provide measured IC50 value, entry: O=C(Nc1ccc(C[C@H](NC(=O)[C@@H]2CCCN2S(=O)(=O)c2cc(Cl)cc(Cl)c2)C(=O)NC(=O)C(F)(F)F)cc1)c1c(Cl)cncc1Cl
Result: 10

---

Here, each record is paired with measured clearance data.
- experiment-summary: Plasma clearance in rat upon intravenous administration of 5 mg/kg
- Type: ADME, organism-based
- Parameters: dose 5 mg/kg, route intravenous
Phrase the answer as number then unit, nothing more needed.

O=C(Nc1ccc(C[C@H](NC(=O)[C@@H]2CCCN2S(=O)(=O)c2cc(Cl)cc(Cl)c2)c2cc(=O)[nH]o2)cc1)c1c(Cl)cncc1Cl	37.6 mL/min/kg
O=C(Nc1ccc(C[C@H](NC(=O)[C@@H]2CCCN2S(=O)(=O)c2cc(Cl)cc(Cl)c2)C(=O)O)cc1)c1c(Cl)cncc1Cl	38.2 mL/min/kg

Request: Provide measured clearance value, entry: O=C(Nc1ccc(C[C@H](NC(=O)[C@@H]2CCCN2S(=O)(=O)c2cc(Cl)cc(Cl)c2)c2noc(O)n2)cc1)c1c(Cl)cncc1Cl
Result: 60 mL/min/kg

---

Here, each record is paired with measured AUC data.
- experiment-summary: Area under plasma concentration curve in rat upon intravenous administration of 5 mg/kg
- Type: ADME, organism-based
- Parameters: dose 5 mg/kg, route intravenous
Output spec: scalar in µM·h, unitless text.

O=C(Nc1ccc(C[C@H](NC(=O)[C@@H]2CCCN2S(=O)(=O)c2cc(Cl)cc(Cl)c2)C(=O)O)cc1)c1c(Cl)cncc1Cl	0.68
O=C(Nc1ccc(C[C@H](NC(=O)[C@@H]2CCCN2S(=O)(=O)c2cc(Cl)cc(Cl)c2)c2noc(O)n2)cc1)c1c(Cl)cncc1Cl	2.01

Request: Provide measured AUC value, entry: O=C(Nc1ccc(C[C@H](NC(=O)[C@@H]2CCCN2S(=O)(=O)c2cc(Cl)cc(Cl)c2)c2cc(=O)[nH]o2)cc1)c1c(Cl)cncc1Cl
Result: 3.51

---

- experiment-summary: Volume of distribution of compound in rat plasma upon intravenous administration of 5 mg/kg
- Format: ADME, organism-based
- Design: dose 5 mg/kg, route intravenous
Here, each record is paired with measured Vd data.
Output spec: scalar in L/kg, unitless text.

O=C(Nc1ccc(C[C@H](NC(=O)[C@@H]2CCCN2S(=O)(=O)c2cc(Cl)cc(Cl)c2)c2noc(O)n2)cc1)c1c(Cl)cncc1Cl	2.61

Request: Provide measured Vd value, entry: O=C(Nc1ccc(C[C@H](NC(=O)[C@@H]2CCCN2S(=O)(=O)c2cc(Cl)cc(Cl)c2)C(=O)O)cc1)c1c(Cl)cncc1Cl
Result: 0.57

Request: Provide measured Vd value, entry: O=C(Nc1ccc(C[C@H](NC(=O)[C@@H]2CCCN2S(=O)(=O)c2cc(Cl)cc(Cl)c2)c2cc(=O)[nH]o2)cc1)c1c(Cl)cncc1Cl
Result: 1.25

---

- experiment-summary: Half-life in rat upon intravenous administration of 5 mg/kg
- Assay type: ADME, organism-based
- Set-up: dose 5 mg/kg, route intravenous
- measurement-setup: in vivo
measured-attribute: half-life (h)
Output spec: scalar in h, unitless text.

Some solved entries appear below for comparison.
O=C(Nc1ccc(C[C@H](NC(=O)[C@@H]2CCCN2S(=O)(=O)c2cc(Cl)cc(Cl)c2)c2noc(O)n2)cc1)c1c(Cl)cncc1Cl	2.78
O=C(Nc1ccc(C[C@H](NC(=O)[C@@H]2CCCN2S(=O)(=O)c2cc(Cl)cc(Cl)c2)c2cc(=O)[nH]o2)cc1)c1c(Cl)cncc1Cl	2.85

Could you now look at the following molecule, please?
Request: Provide measured half-life value, entry: O=C(Nc1ccc(C[C@H](NC(=O)[C@@H]2CCCN2S(=O)(=O)c2cc(Cl)cc(Cl)c2)C(=O)O)cc1)c1c(Cl)cncc1Cl
Result: 0.72

---

- experiment-summary: Oral bioavailability in rat upon oral administration of 5 mg/kg
- measurement-setup: in vivo
measured-attribute: bioavailability (%)
Output spec: scalar in %, unitless text.

Request: Provide measured bioavailability value, entry: O=C(Nc1ccc(C[C@H](NC(=O)[C@@H]2CCCN2S(=O)(=O)c2cc(Cl)cc(Cl)c2)c2noc(O)n2)cc1)c1c(Cl)cncc1Cl
Result: 0.19

---

Here, each record is paired with measured IC50 data.
- assayed-system: Integrin alpha-4/beta-1 (Homo sapiens, UniProt P05556+P13612)
- experiment-summary: Inhibition of VLA-4 receptor of Jurkat cells in BURJ assay
Output spec: scalar in nM, unitless text.

O=C(Nc1ccc(C[C@H](NC(=O)[C@@H]2CCCN2S(=O)(=O)c2cc(Cl)cc(Cl)c2)C(=O)O)cc1)c1c(Cl)cncc1Cl	0.03

Request: Provide measured IC50 value, entry: O=C(Nc1ccc(C[C@H](NC(=O)[C@@H]2CCCN2S(=O)(=O)c2cc(Cl)cc(Cl)c2)C(=O)NS(=O)(=O)C(F)(F)F)cc1)c1c(Cl)cncc1Cl
Result: 11

Request: Provide measured IC50 value, entry: O=C(Nc1ccc(C[C@H](NC(=O)[C@@H]2CCCN2S(=O)(=O)c2cc(Cl)cc(Cl)c2)c2cc(O)[nH]n2)cc1)c1c(Cl)cncc1Cl
Result: 300
